Parameter: inhibition at 10 µM. Scope: all listed entries.
TESTED_SYSTEM: human H4R (Homo sapiens, UniProt Q9H3N8)
Sequence (Q9H3N8 whole entry): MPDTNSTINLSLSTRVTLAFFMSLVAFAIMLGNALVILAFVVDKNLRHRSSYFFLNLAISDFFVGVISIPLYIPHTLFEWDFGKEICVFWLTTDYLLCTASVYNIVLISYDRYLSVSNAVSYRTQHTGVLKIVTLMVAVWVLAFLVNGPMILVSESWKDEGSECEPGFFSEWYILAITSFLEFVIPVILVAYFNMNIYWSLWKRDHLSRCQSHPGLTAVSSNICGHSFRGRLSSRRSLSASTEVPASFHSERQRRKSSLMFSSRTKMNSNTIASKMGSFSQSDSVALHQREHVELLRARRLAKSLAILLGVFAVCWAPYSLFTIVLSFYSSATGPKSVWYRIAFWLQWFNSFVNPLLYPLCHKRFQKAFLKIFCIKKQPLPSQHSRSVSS
MEASUREMENT_DESCRIPTION: Human H4R radioligand displacement assay
DETAILS: read-out: hH4R Inhibition at 10 µM [%] (n)

SMILES_REPR: O=C(c1nc2ccc(OCCN3CCCCC3)cc2s1)N1CCCCC1
inhibition at 10 µM / %: 30.3
//
SMILES_REPR: O=C(c1nc2ccc(OCCN3CCCC3)cc2s1)N1CCCC1
inhibition at 10 µM / %: 44.9
//
SMILES_REPR: CCOC(=O)c1nc2ccc(OCCN3CCOCC3)cc2s1
inhibition at 10 µM / %: 39.2
//
SMILES_REPR: O=C(NCC1CCCCC1)c1nc2ccc(OCCCNCC3CCCCC3)cc2s1
inhibition at 10 µM / %: 60.8
//
SMILES_REPR: O=C(NC1CC1)c1nc2ccc(OCCCCCNC3CC3)cc2s1
inhibition at 10 µM / %: 51.6
//
SMILES_REPR: O=C(c1nc2ccc(OCCCCCN3CCCCC3)cc2s1)N1CCCCC1
inhibition at 10 µM / %: 38.8
